Source: patent US20260125375A1

Molecular target: C-CBL (residues 46-435) (Homo sapiens, UniProt P22681)
Construct: Purified CBL-B (residues 36-427) and C-CBL (residues 46-435) proteins from baculovirus-infected insect cells; made in house; host or cells: baculovirus-infected insect cells
Experiment: Ligand Displacement Assay (LDA), HTRF competitive binding against BODIPY-labeled fluorescent tracer, C-CBL
Details: geometric mean of the number of tests, read-out: C-CBL Ki (nM) GMean
Measurement Label: log10 of Ki (log10 of the value in nM)
Note the log scale: values are log10 of Ki expressed in nM.

Compound: CC(c1nc(C(F)(F)F)cc2c(-c3cccc(C4(Cc5nncn5C)COC4)c3)n[nH]c12)N1CCCCC1 (single isomer, unassigned) [Example C22]
Measured Target: C-CBL (residues 46-435) (Homo sapiens, UniProt P22681)
log10 of Ki: 2.12

Compound: C[C@H](c1nc(C(F)(F)F)cc2c(-c3cccc([C@H](c4nncn4C)C4CCC4)c3)n[nH]c12)N1CCNC(=O)C1 (single isomer, unassigned) [Example D89]
Measured Target: C-CBL (residues 46-435) (Homo sapiens, UniProt P22681)
log10 of Ki: 2.46

Compound: C[C@@H](N[C@H]1CCC(F)(F)C1)c1nc(C(F)(F)F)cc2c(-c3cccc(C4(Cc5nncn5C)COC4)c3)n[nH]c12 (single isomer, unassigned) [Example C13]
Measured Target: C-CBL (residues 46-435) (Homo sapiens, UniProt P22681)
log10 of Ki: 0.90

Compound: Cn1cnnc1[C@@H](c1cccc(-c2n[nH]c3c(CN4C[C@H](O)[C@@H](O)C4)nc(C(F)(F)F)cc23)c1)C1CCC1 [Example C76]
Measured Target: C-CBL (residues 46-435) (Homo sapiens, UniProt P22681)
log10 of Ki: 1.62

Compound: CC(NC[C@H](C)O)c1nccc2c(-c3cccc([C@H](c4nncn4C)C4CCC4)c3)n[nH]c12 (single isomer, unassigned) [Example C124]
Measured Target: C-CBL (residues 46-435) (Homo sapiens, UniProt P22681)
log10 of Ki: 2.04

Compound: Cn1cnnc1CC1(c2cccc(-c3n[nH]c4c(CCN)nc(C(F)(F)F)cc34)c2)COC1 [Example K5]
Measured Target: C-CBL (residues 46-435) (Homo sapiens, UniProt P22681)
log10 of Ki: 2.30

Compound: Cn1cnnc1CC1(c2cccc(-c3n[nH]c4c(CN5CCNCC5)nc(C(F)(F)F)cc34)c2)COC1 [Example C64]
Measured Target: C-CBL (residues 46-435) (Homo sapiens, UniProt P22681)
log10 of Ki: 2.07

Compound: Cn1cnnc1[C@@H](c1cccc(-c2n[nH]c3c(CN4C[C@@H](O)[C@H](O)C4)nc(C(F)(F)F)cc23)c1)C1CCC1 [Example C74]
Measured Target: C-CBL (residues 46-435) (Homo sapiens, UniProt P22681)
log10 of Ki: 1.92

Compound: CC(=O)NC(C)c1nc(C(F)(F)F)cc2c(-c3cccc([C@H](c4nncn4C)C4CCC4)c3)n[nH]c12 (single isomer, unassigned) [Example M2]
Measured Target: C-CBL (residues 46-435) (Homo sapiens, UniProt P22681)
log10 of Ki: 2.35

Compound: Cn1cnnc1[C@@H](c1cccc(-c2n[nH]c3c(CN[C@H]4C[C@@H](O)C4)nc(C(F)(F)F)cc23)c1)C1CCC1 [Example C120]
Measured Target: C-CBL (residues 46-435) (Homo sapiens, UniProt P22681)
log10 of Ki: 2.02

Input line: Return reported log10 of Ki; argument: CC(c1nc(C(F)(F)F)cc2c(-c3cccc(C4(Cc5nncn5C)COC4)c3)n[nH]c12)N1CCC[C@H](C)C1 (single isomer, unassigned) [Example C20]
Output line: 1.23

Input line: Here is the next compound: C[C@@H](NC1CC(F)(F)C1)c1nc(C(F)(F)F)cc2c(-c3cccc([C@H](c4nncn4C)C4CCC4)c3)n[nH]c12 (single isomer, unassigned) [Example D91]
Output line: 1.82

Input line: What about this compound? Cn1cnnc1CC1(c2cccc(-c3n[nH]c4c(CN5CCCC5)nc(C(F)(F)F)cc34)c2)COC1 [Example C62]
Output line: 2.21

Input line: CC(c1nc(C(F)(F)F)cc2c(-c3cccc(C4(Cc5nncn5C)COC4)c3)n[nH]c12)N1CCOCC1 (single isomer, unassigned) [Example C24] , same question.
Output line: 2.13
